biological target: purified recombinant human insulin receptor-exon 11 (human); assay: assay (I): SPA, displacement of A14 Tyr[125I]-human insulin from recombinant human insulin receptor
experimental.readout: insulin receptor binding relative to that of human insulin (%)

Worked examples follow.
B(1-29)-B29A-VGLSSGQ-A(1-21)-A18K(N(eps)myristoyl) Human Insulin (from UniProt P01308 25-53; P01308 90-110) (ligand)	27
B(1-29)-B29H-TGLGSGR-A(1-21)-A18K(N-eps-hexadecandioyl-g-L-Glu)-A21 G Human insulin (from UniProt P01308 25-53; P01308 90-110) (ligand)	45.7
B(1-29)-B29A-VGLSSGQ-A(1-22)-A18Q, A22K(N(eps)hexadecandioyl-gGlu) Human Insulin (from UniProt P01308 25-53; P01308 90-110) (ligand)	44

I. B(1-29)-B29A-VGLSSGQ-A(1-22)-A18Q-A22K((eps)heptadecandioyl-g-Glu) Human Insulin (from UniProt P01308 25-53; P01308 90-110) (ligand)
II. B(1-29)-B29A-VGLSSGQ-A(1-21)-A18K(N(eps)hexadecandioyl-gGlu) Human Insulin (from UniProt P01308 25-53; P01308 90-110) (ligand)
QUERY: Which has the smaller recorded insulin receptor binding relative to that of human insulin, I or II ? Please indicate the selected item by its label.
RESULT: II
(II: 25%, I: 43%)
